Test: GSK_TCMDC: Inhibition Frequency Index (IFI). The number of non-kinase HTS assays where a compound showed > 50 % inhibition, expressed as a percentage of the number of such assays in which the compound was tested
Format: functional
The full ranking holds about 13,000 compounds; the median of “IFI” is about 4, and the highest 2% start at about 17. Only a selection was taken, and the highest values are over-represented in it overall.
Values of IFI greater than or equal to 10% map to satisfied; values below map to not satisfied.

// known answers, use as guide
structure	discrete-label
N=C(/N=C(/NCCCCCCN/C(=N\C(=N)Nc1ccc(Cl)cc1)N1CCOCC1)N1CCOCC1)Nc1ccc(Cl)cc1	not satisfied
N=C(/N=C(/NCCCCCCN/C(=N/C(=N)NCc1ccc(Cl)c(Cl)c1)N1CCCCC1)N1CCCCC1)NCc1ccc(Cl)c(Cl)c1	satisfied

Test whether the molecule CN(C)/C(=N/C(=N)NCc1ccc(Cl)c(Cl)c1)NCCCCCCN/C(=N\C(=N)NCc1ccc(Cl)c(Cl)c1)N(C)C records IFI of 10% or higher.
satisfied

Test whether the molecule CN(C)CC(=O)Nc1ccc(-c2ccc3ccnc(N)c3c2)cc1 records IFI of 10% or higher.
not satisfied

Test whether the molecule CC(C)CNCc1cccc(-c2ccc(CN(CCCN3CCN(C)CC3)C(=O)/C=C/c3ccccc3)cc2)c1 records IFI of 10% or higher.
not satisfied

Test whether the molecule N=C(/N=C(/NCCCCCCN/C(=N\C(=N)Nc1ccc(Cl)cc1)N1CCCCC1)N1CCCCC1)Nc1ccc(Cl)cc1 records IFI of 10% or higher.
satisfied

Test whether the molecule CCCCN(CCCC)/C(=N/C(=N)NCc1ccc(Cl)c(Cl)c1)NCCCCCCN/C(=N\C(=N)NCc1ccc(Cl)c(Cl)c1)N(CCCC)CCCC records IFI of 10% or higher.
satisfied

Test whether the molecule CC(C)Cc1cn(-c2nc(-c3nc4ccccc4[nH]3)cs2)c2ccncc12 records IFI of 10% or higher.
not satisfied
